- TARGET: rhodopsin (isorhodopsin) dimerization (Homo sapiens)
- TEST NAME: rhodopsin β-gal fragment complementation assay in U2OS opsin-EA/opsin-PK cells
- Format: cell-based
- Set-up: expressed in transfected cells
- CONDITION SET: U2OS opsin-EA/PK cells regenerated with 9-cis-retinal; triplicates; read from Fig. 3A,D
pEC50: −log10 of the molar value.
METRIC: pEC50

Below are worked cases with known answers.
>>> df
                                smiles_code   val
0          O=C(NCCc1ccsc1)c1cc(-c2ccco2)on1  5.92
1      O=C(CSc1nnc(NC(=O)Cc2ccc(F)cc2)s1)NO  5.64
2  CCOc1ccccc1-n1nnc(-c2nn3c(Cc4ccccc4)nnc3s2)c1C  4.52
3  COc1ccc(S(=O)(=O)N(C(C)=O)c2cc3sc(=O)oc3c3ccccc23)cc1  4.50
4  NC(=O)c1oc2ccccc2c1NC(=O)c1ccc(Oc2ccccc2)cc1  4.78

1. O=C(Nc1ccc(CC(=O)N2CCC(O)CC2)cc1)c1cc(-c2ccco2)on1
2. Cc1c(C(=O)N(Cc2cccnc2)c2nc3c(F)cccc3s2)cnn1-c1ccccc1
IN: From the recorded data, which exceeds the other in pEC50: 1 or 2 ? In your reply, give the label of the chosen option.
OUT: 2
(2: 4.98, 1: 4.62)

###

- TARGET: rhodopsin (isorhodopsin) dimerization (Homo sapiens, UniProt P08100)
- Sequence (P08100 whole entry, the tested form may be a part): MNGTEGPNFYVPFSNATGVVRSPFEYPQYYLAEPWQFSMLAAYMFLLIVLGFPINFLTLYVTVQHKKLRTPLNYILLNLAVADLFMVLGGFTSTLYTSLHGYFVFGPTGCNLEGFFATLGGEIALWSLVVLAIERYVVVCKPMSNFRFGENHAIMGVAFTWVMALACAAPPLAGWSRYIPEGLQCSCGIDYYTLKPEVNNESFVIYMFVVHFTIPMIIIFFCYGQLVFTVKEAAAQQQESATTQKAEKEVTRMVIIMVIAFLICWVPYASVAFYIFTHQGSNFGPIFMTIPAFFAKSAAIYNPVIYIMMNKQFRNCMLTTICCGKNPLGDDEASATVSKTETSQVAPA
- TEST NAME: rhodopsin dimerization BRET assay in HEK293 opsin-Rluc/opsin-Venus cells
- Format: cell-based
- Design: expressed in transfected cells; host or cells: HEK293 (human embryonic kidney 293) opsin-Rluc / opsin-Venus cell lines
- CONDITION SET: HEK293 opsin-Rluc/opsin-Venus cells regenerated with 9-cis-retinal; triplicates; read from Fig. 3B,E
- Experimental: To identify small molecules that target rhodopsin dimerization, a cell-based high-throughput screening (HTS) assay was used to screen a diverse library of 50,000 compounds from Life Chemicals. […] In an orthogonal assay, rhodopsin dimerization was assessed using a bioluminescence resonance energy transfer (BRET) assay with human embryonic kidney 293 cells expressing opsin fused with Renilla luciferase and opsin fused with Venus (Fig. 1C) ([35], [36]). […]
pEC50: −log10 of the molar value.
METRIC: pEC50

Below: 3 compounds and their reported pEC50.
In [3]: df
Out[3]:
                                smiles_code                                    target   val
0  NC(=O)c1oc2ccccc2c1NC(=O)c1ccc(Oc2ccccc2)cc1  rhodopsin (isorhodopsin) dimerization (Homo sapiens, UniProt P08100)  4.69
1  CCOc1ccccc1-n1nnc(-c2nn3c(Cc4ccccc4)nnc3s2)c1C  rhodopsin (isorhodopsin) dimerization (Homo sapiens, UniProt P08100)  4.87
2  COc1ccc(S(=O)(=O)N(C(C)=O)c2cc3sc(=O)oc3c3ccccc23)cc1  rhodopsin (isorhodopsin) dimerization (Homo sapiens, UniProt P08100)  5.26

P. O=C(CSc1nnc(NC(=O)Cc2ccc(F)cc2)s1)NO
Q. O=C(Nc1ccc(CC(=O)N2CCC(O)CC2)cc1)c1cc(-c2ccco2)on1
R. Cc1c(C(=O)N(Cc2cccnc2)c2nc3c(F)cccc3s2)cnn1-c1ccccc1
S. O=C(NCCc1ccsc1)c1cc(-c2ccco2)on1
IN: # sort list by recorded pEC50, greatest to least Returns: the labels listed in the requested order.
OUT: P, S, Q, R
(P: 5.63, S: 5.40, Q: 5.10, R: 4.75)

Every entry's value here was drawn from paper PMC8665362.
